Tested on: COS-1
test.method.notes: Compound tested for inhibition of HIV Tat-regulated Transactivation in COS cells at a concentration of 20 uM.
Assay type: functional
test.context: Chlorocebus aethiops
Classify by measured inhibition at 20 µM: Criterion met if it is equal to or exceeds 50%, Criterion not met if it is smaller.

molecule: COc1cc(C[C@@H](C)[C@@H](C)Cc2ccc(O)c(O)c2)ccc1O (racemic)
group.label: Criterion not met
--
molecule: COc1ccc(C[C@H](C)[C@H](C)Cc2ccc(OC)c(OC)c2)cc1O (racemic)
group.label: Criterion met
--
molecule: COc1cc(C[C@@H](C)[C@@H](C)Cc2ccc(O)c(OC)c2)ccc1O [MESODIHYDROGUAIARETIC ACID]
group.label: Criterion not met
--
molecule: COc1ccc(C[C@@H](C)[C@@H](C)Cc2ccc(O)c(O)c2)cc1O
group.label: Criterion not met
--
molecule: COc1ccc(C[C@@H](C)[C@@H](C)Cc2ccc(OC)c(O)c2)cc1O [DIMETHYLNORDIHYDROGUARIERATE ACID]
group.label: Criterion not met
--
molecule: COc1ccc(C[C@@H](C)[C@@H](C)Cc2ccc(O)c(O)c2)cc1OC (racemic)
group.label: Criterion met

Prompt line: API: above_or_equal(metric=inhibition at 20 µM, cutoff=50%) for item `COc1ccc(C[C@@H](C)[C@@H](C)Cc2ccc(OC)c(OC)c2)cc1OC`
Response line: Criterion met

---

System: COS-1
test.method.notes: Compound tested for inhibition of HIV Tat-regulated Transactivation in COS cells at a concentration of 100 uM.
Assay type: functional
test.context: Chlorocebus aethiops
property: inhibition at 100 µM (%)
Return type: number; implicit unit %.

Worked examples, 2 compounds total:
compound: COc1cc(C[C@@H](C)[C@@H](C)Cc2ccc(O)c(OC)c2)ccc1O [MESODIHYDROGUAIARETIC ACID]
unit.string: %
inhibition at 100 µM: 73.7
//
compound: COc1ccc(C[C@@H](C)[C@@H](C)Cc2ccc(OC)c(OC)c2)cc1OC
unit.string: %
inhibition at 100 µM: 90.3

Prompt line: Which inhibition at 100 µM reading was recorded for the compound COc1cc(C[C@@H](C)[C@@H](C)Cc2ccc(O)c(O)c2)ccc1O (racemic) ?
Response line: 92.3

---

System: COS-1
test.method.notes: Compound tested for inhibition of HIV Tat-regulated Transactivation in COS cells at a concentration of 3 uM.
Format: functional
test.context: Chlorocebus aethiops
The reader will find reported inhibition at 3 µM values listed item by item below.
Return type: number; implicit unit %.

Worked examples, 7 compounds total:
compound: COc1cc(C[C@@H](C)[C@@H](C)Cc2ccc(O)c(OC)c2)ccc1O [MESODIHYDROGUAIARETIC ACID]
inhibition at 3 µM, %: 10.3
--
compound: COc1cc(C[C@@H](C)[C@@H](C)Cc2ccc(O)c(O)c2)ccc1O (racemic)
inhibition at 3 µM, %: 7.3
--
compound: COc1ccc(C[C@@H](C)[C@@H](C)Cc2ccc(O)c(O)c2)cc1O
inhibition at 3 µM, %: 2.3
--
compound: COc1ccc(C[C@@H](C)[C@@H](C)Cc2ccc(OC)c(OC)c2)cc1OC
inhibition at 3 µM, %: 25.3
--
compound: COc1ccc(C[C@@H](C)[C@@H](C)Cc2ccc(O)c(O)c2)cc1OC (racemic)
inhibition at 3 µM, %: 14.3
--
compound: COc1ccc(C[C@@H](C)[C@@H](C)Cc2ccc(OC)c(O)c2)cc1O [DIMETHYLNORDIHYDROGUARIERATE ACID]
inhibition at 3 µM, %: 8.7
--
compound: COc1ccc(C[C@H](C)[C@H](C)Cc2ccc(OC)c(OC)c2)cc1O (racemic)
inhibition at 3 µM, %: 27

Prompt line: Which inhibition at 3 µM reading was recorded for the compound COc1cc(C[C@H](C)[C@H](C)Cc2ccc(OC)c(OC)c2)ccc1O (racemic) ?
Response line: 26.7

---

The reader will find reported inhibition at 100 µM values listed item by item below.
Test system: COS-1
test.method.notes: Compound tested for inhibition of HIV Tat-regulated Transactivation in COS cells at a concentration of 100 uM.
Assay type: functional
test.context: Chlorocebus aethiops
Return type: number; implicit unit %.

compound: COc1ccc(C[C@H](C)[C@H](C)Cc2ccc(OC)c(OC)c2)cc1O (racemic)
unit.string: %
data.value: 88.3

Prompt line: So what inhibition at 100 µM did `COc1ccc(C[C@@H](C)[C@@H](C)Cc2ccc(O)c(O)c2)cc1O` get with COS-1?
Response line: 91.3

Prompt line: Also need COc1ccc(C[C@@H](C)[C@@H](C)Cc2ccc(OC)c(O)c2)cc1O [DIMETHYLNORDIHYDROGUARIERATE ACID] , thanks.
Response line: 85.7

Prompt line: Also need COc1ccc(C[C@@H](C)[C@@H](C)Cc2ccc(O)c(O)c2)cc1OC (racemic) , thanks.
Response line: 96

Prompt line: Also need COc1cc(C[C@H](C)[C@H](C)Cc2ccc(OC)c(OC)c2)ccc1O (racemic) , thanks.
Response line: 87.7
